- ASSAY NOTES: Comparative bioavailability of Trial 2 of Example 4 and ACTOS tablets 45 mg, open label randomized cross-over single dose study, fasting, 55 subjects
- Format: in vivo
- REPORTED CONDITIONS: human, plasma, oral, calculated from Table 6 results, single dose to humans, read-out: therapeutically equivalent range of plasma pioglitazone AUC0-∞T
QUANTITY MEASURED: AUC(0-inf)

* CCc1ccc(CCOc2ccc(CC3SC(=O)NC3=O)cc2)nc1 (racemic) | 11900 to 18500 ng·h/mL
